- System: MIA PaCa-2 cells
- Experimental protocol: Growth inhibition activity on KRAS-G12C mutant cell line (MIA PaCa-2), CellTiter-Glo 3D
- Type: cell-based, human
- Experimental parameters: MIA PaCa-2, 3-day culture with compound
Items are presented alongside their recorded IC50.

Look over these answered cases.
In: May I ask what IC50 has been recorded for COc1c(-c2cccn3c(C(=O)c4cc(F)c(NC(=O)/C=C/CNC5(C)CC5)c(F)c4)cnc23)c(C(F)(F)F)cc2c1nc(C)n2C (single isomer, unassigned) [Example 105-1] ?
Out: 23.1 nM

In: Cc1cc2c(nc(C)n2C)c(Cl)c1-c1cccn2c(C(=O)c3cc(F)c(NC(=O)/C=C/CNC(C)(C)C)c(F)c3)ccc12 (single isomer, unassigned) [Example 18-2] , same question.
Out: 230 nM

In: Same thing, different molecule: COc1cc2c(nc(C)n2C)c(Cl)c1-c1cccn2c(C(=O)c3cc(F)c(NC(=O)/C=C/CNC(C)(C)C)c(F)c3)ccc12 (single isomer, unassigned) [Example 36-2]
Out: 60 nM

In: Field entry: CO[C@H]1CC[C@H](NC/C=C/C(=O)Nc2c(F)cc(C(=O)c3ccc4c(-c5c(C)cc6c(ncn6C)c5Cl)cccn34)cc2F)CC1 (single isomer, unassigned) [Example 12-1]
Out: 79 nM

# evaluate next
In: Could you tell me which IC50 is on file for Cc1nc2c(Cl)c(-c3cccn4c(C(=O)c5cc(F)c(NC(=O)/C=C/CNC6CCOCC6)c(F)c5)ccc34)c(C(F)(F)F)cc2n1C (single isomer, unassigned) [Example 57-1] ?
Out: 20 nM

---

- System tested: interaction between recombinant K-Ras4B G12C mutant protein and cRAF RAS-binding domain (cRAF-RBD) (Homo sapiens, UniProt P01116, G12C)
- Sequence (P01116 with tags, fused parts or gaps isoform P01116-2 G12C): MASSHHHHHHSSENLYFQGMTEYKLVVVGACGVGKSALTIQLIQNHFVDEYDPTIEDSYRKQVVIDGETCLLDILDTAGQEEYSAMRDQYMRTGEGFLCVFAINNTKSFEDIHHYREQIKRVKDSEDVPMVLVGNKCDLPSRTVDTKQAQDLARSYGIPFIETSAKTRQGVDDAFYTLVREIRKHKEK
- Experimental protocol: Inhibitory activity on interaction between KRAS G12C and cRAF (Alpha technology)
- Experimental parameters: GMPPNP-bound KRAS G12C incubated with compound at 25° C. for 1 hour, then cRAF-RBD; Alpha signal
Measured property: pIC50
Quick note: pIC50 values are minus log10 of concentrations in mol/L.

Use these answered entries as a reference point.
In: Find the recorded pIC50 belonging to Cc1nc2cc(-c3cccn4c(C(=O)c5cc(F)c(NC(=O)/C=C/CNC6CCN(C)C(=O)C6)c(F)c5)ccc34)c(C(F)(F)F)cc2n1C (stereo not drawn) [Example 72] and report it.
Out: 7.05

In: Now consider Cc1nc2cc(-c3cccn4c(C(=O)c5cc(F)c(NC(=O)/C=C/CNC67CCC(F)(CC6)CC7)c(F)c5)ccc34)c(C(F)(F)F)cc2n1C [Example 85] .
Out: 7.35

In: Ok, now COc1c(-c2cccn3c(C(=O)c4cc(F)c(NC(=O)/C=C/CN[C@H]5CC[C@H](OC)CC5)c(F)c4)cnc23)c(C(F)(F)F)cc2c1nc(C)n2C (single isomer, unassigned) [Example 83-1]
Out: 7.80

In: Can you check Cc1nc2cc(-c3cccn4c(C(=O)c5cc(F)c(NC(=O)/C=C/CN[C@H]6CC[C@H](F)CC6)c(F)c5)ccc34)c(C(F)(F)F)cc2n1C [Example 80] next?
Out: 7.23

In: What do you get for CO[C@H]1CC[C@H](NC/C=C/C(=O)Nc2c(F)cc(C(=O)c3c(C4CC4)nc4c(-c5cc6nc(C)n(C)c6cc5C(F)(F)F)cccn34)cc2F)CC1 [Example 95] ?
Out: 6.89

Shift focus to the following entry.
In: Request the reported pIC50 associated with CCc1cc2c(nc(C)n2C)c(Cl)c1-c1cccn2c(C(=O)c3cc(F)c(NC(=O)/C=C/CNC(C)(C)C)c(F)c3)ccc12 [Example 16]
Out: 7.19

---

- System tested: biotinylated KRAS G12C protein (GMP-PNP loaded) and GST-tagged Ras binding domain of c-RAF (Homo sapiens, UniProt P01116, C118S/C51S/C80L/G12C)
- Sequence (P01116 with tags, fused parts or gaps isoform P01116-2 G12C/C51S/C80L/C118S): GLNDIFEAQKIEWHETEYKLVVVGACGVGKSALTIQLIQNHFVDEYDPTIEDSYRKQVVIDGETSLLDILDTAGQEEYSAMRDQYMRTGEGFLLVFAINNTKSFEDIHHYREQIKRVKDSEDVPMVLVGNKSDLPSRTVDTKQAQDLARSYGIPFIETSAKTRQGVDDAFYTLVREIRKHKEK
- Experimental protocol: RAS:RAF-RBD binding assay (TR-FRET)
- Experimental parameters: 30-minute incubation with KRAS G12C, then RAF-RBD 60 minute
Below, each of the compounds is paired with its reported IC50 value.
Only the number, expressed in nM, is required.

Solved entries:
In: Look at this compound and give its reported IC50. `CO[C@H]1CC[C@H](NC/C=C/C(=O)Nc2c(F)cc(C(=O)c3ccc4c(-c5cc6ncccc6cc5C(F)(F)F)cccn34)cc2F)CC1`
Out: 482

In: Item: CO[C@H]1CC[C@H](NC/C=C/C(=O)Nc2c(F)cc(C(=O)c3ccc4c(-c5c(C(F)(F)F)cc6c(cnn6C)c5Cl)cccn34)cc2F)CC1 (single isomer, unassigned)
Out: 461

Others:
In: I would be grateful if you could share the reported IC50 for Cc1nc2c(Cl)c(-c3cccn4c(C(=O)c5cc(F)c(NC(=O)/C=C/CN6CCCC6C(C)(C)O)c(F)c5)ccc34)c(C(F)(F)F)cc2n1C (centres unmarked) [Example 129, mono(2,2,2-trifluoroacetate)] .
Out: 101

In: Check COc1c(-c2cccn3c(C(=O)c4cc(F)c(NC(=O)/C=C/CN[C@H]5CC[C@H](OC)CC5)c(F)c4)ccc23)c(C(F)(F)F)cc2c1cnn2C (single isomer, unassigned) too.
Out: 56.5

In: // query: COc1c(-c2cccc3c2ccn3C(=O)c2cc(F)c(NC(=O)/C=C/CN[C@H]3CCOC3)c(F)c2)c(C(F)(F)F)cc2c1nc(C)n2C (single isomer, unassigned) [Example 116, mono(2,2,2-trifluoroacetate)]
Out: 14.8

---

- System tested: biotinylated KRAS G12C protein (GMP-PNP loaded) and GST-tagged Ras binding domain of c-RAF (Homo sapiens, UniProt P01116, C118S/C51S/C80L/G12C)
- Experimental protocol: RAS:RAF-RBD binding assay (TR-FRET)
- Experimental parameters: 30-minute incubation with KRAS G12C, then RAF-RBD 60 minute
Measured property: pIC50
Scale: negative log10 of molar concentration, which is what pIC50 denotes.

Illustrative cases are given below, each with its answer.
In: // lookup pIC50 for Cc1c(-c2cccn3c(C(=O)c4cc(F)c(NC(=O)/C=C/CN[C@H]5CCOC5)c(F)c4)ccc23)ccc2c1CCC2O (stereo partly drawn) [Example 132, 2,2,2-trifluoroacetate]
Out: 6.52

In: // same read-out, input: Cc1c2cc(C(F)(F)F)c(-c3cccn4c(C(=O)c5cc(F)c(NC(=O)/C=C/CNC6(C)COC6)c(F)c5)ccc34)c(O)c2nn1C (single isomer, unassigned) [Example 123, 2,2,2-trifluoroacetate]
Out: 7.11

More entries:
In: So what does the record say about pIC50 for CO[C@H]1CC[C@H](NC/C=C/C(=O)Nc2c(F)cc(C(=O)c3ccc4c(-c5cc6c(=O)n(C)ccc6cc5C(F)(F)F)cccn34)cc2F)CC1 [Example 125] ?
Out: 6.40

---

- Tested on: MIA PaCa-2 cells
- Experimental protocol: Growth inhibition activity on KRAS-G12C mutant cell line (MIA PaCa-2), CellTiter-Glo 3D
- Type: cell-based, human
- Experimental parameters: MIA PaCa-2, 3-day culture with compound
Measured property: IC50

In: I am curious: what IC50 value has been reported for COc1cc2c(nc(C)n2C)c(Cl)c1-c1cccn2c(C(=O)c3cc(F)c(NC(=O)/C=C/CNC(C)(C)C)c(F)c3)ccc12 (single isomer, unassigned) [Example 36-1] ?
Out: 24 nM

In: Input COc1c(-c2cc(F)cn3c(C(=O)c4cc(F)c(NC(=O)/C=C/CNC5(C)CC5)c(F)c4)cnc23)c(C(F)(F)F)cc2c1nc(C)n2C (single isomer, unassigned) [Example 112-2]
Out: 532 nM

Turning to the following compound.
In: For the compound shown here, COc1c(-c2cccn3c(C(=O)c4cc(F)c(NC(=O)/C=C/CNC5(C)CC5)c(F)c4)cnc23)c(C(F)(F)F)cc2c1nc(C)n2C (single isomer, unassigned) [Example 105-2] , give the reported IC50.
Out: 943 nM

---

- System tested: interaction between recombinant K-Ras4B G12C mutant protein and cRAF RAS-binding domain (cRAF-RBD) (Homo sapiens, UniProt P01116, G12C)
- Experimental protocol: Inhibitory activity on interaction between KRAS G12C and cRAF (Alpha technology)
- Experimental parameters: GMPPNP-bound KRAS G12C incubated with compound at 25° C. for 1 hour, then cRAF-RBD; Alpha signal
- Procedure: Interaction between recombinant K-Ras4B G12C mutant protein (amino acids 1-169, SEQ ID NO:2) and cRAF RAS-binding domain (cRAF-RBD, amino acids 50-132, Jena Biosciences GmbH) was measured using Alpha technology (PerkinElmer Inc.). Recombinant KRAS G12C protein with an N-terminal His-tag was expressed in E. coli and purified by affinity chromatography. To prepare GTP-bound form and GDP-bound form of KRAS G12C protein. […]
Note that class boundaries on IC50 are c1 = under 40 nM, c2 = from 40 nM up to 70 nM, c3 = 70 nM and over

The following compounds have reported results that may help.
In: Where would `CCCc1cc(C(=O)c2cc(F)c(NC(=O)/C=C/CN[C@H]3CC[C@H](OC)CC3)c(F)c2)n2cccc(-c3c(C)cc4c(nc(C)n4C)c3Cl)c12` land among the classes by reported IC50?
Out: c2

In: Moving on to the next compound: COc1c(-c2cccn3c(C(=O)c4cc(F)c(NC(=O)/C=C/CNC5CCOCC5)c(F)c4)ccc23)c(C(F)(F)F)cc2c1nc(C)n2C (single isomer, unassigned) [Example 61-2]
Out: c1

In: Also CCc1cc2c(nc(C)n2C)c(Cl)c1-c1cccn2c(C(=O)c3cc(F)c(NC(=O)/C=C/CN[C@H]4CC[C@H](OC)CC4)c(F)c3)ccc12 (single isomer, unassigned) [Example 22-1] ?
Out: c1

In: Again, but for CO[C@H]1CC[C@H](NC/C=C/C(=O)Nc2c(F)cc(C(=O)c3ccc4c(-c5c(C(F)(F)F)cc6c(ncn6C)c5Cl)cccn34)cc2F)CC1 (single isomer, unassigned) [Example 28-2]
Out: c3

In: Another: Cc1cc2c(ncn2C)c(Cl)c1-c1cccn2c(C(=O)c3cc(F)c(NC(=O)/C=C/CNC(C)(C)C)c(F)c3)ccc12 (single isomer, unassigned) [Example 13-2]
Out: c3

Further cases:
In: Which category does the recorded IC50 put `CO[C@H]1CC[C@H](NC/C=C/C(=O)Nc2c(F)cc(C(=O)c3cc(C)c4c(-c5c(C)cc6c(nc(C)n6C)c5Cl)cccn34)cc2F)CC1` in?
Out: c1

In: Next: `COc1cc(N2CCCC2=O)cc(Cl)c1-c1cccn2c(C(=O)c3cc(F)c(NC(=O)/C=C/CNC(C)(C)C)c(F)c3)ccc12`
Out: c3

In: Try this compound next: `Cc1nc2cc(-c3cccn4c(C(=O)c5cc(F)c(NC(=O)/C=C/CNC(C)(C)C)c(F)c5)ccc34)c(C(F)(F)F)cc2n1C`
Out: c3
